target: Rhizoupus oryzae lipase ROL (Rhizopus oryzae, UniProt P61872); construct: purchased Sigma-Aldrich Co., Ltd; assay: Hydrolytic activity of surfactant-treated lipase ROL using pNPP as substrate; type: biochemical; conditions: surfactant 10 mM, protein 0.2 mg·mL^−1
Sequence (P61872 96-392): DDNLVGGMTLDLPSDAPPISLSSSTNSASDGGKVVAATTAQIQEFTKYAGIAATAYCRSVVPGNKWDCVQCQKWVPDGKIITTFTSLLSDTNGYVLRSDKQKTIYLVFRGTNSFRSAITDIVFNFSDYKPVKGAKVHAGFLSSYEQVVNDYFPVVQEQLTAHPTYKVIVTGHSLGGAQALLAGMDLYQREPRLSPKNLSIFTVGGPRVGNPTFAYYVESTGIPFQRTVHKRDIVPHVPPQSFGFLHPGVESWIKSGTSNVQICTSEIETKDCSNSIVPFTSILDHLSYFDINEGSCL
Values of Hydrolytic activity, Total recovery greater than or equal to 80% map to 1.0; values below map to 0.0.

Example cases with answers are listed next.
CCCCCCCCCCCCCCCC[N+](C)(C)C.[Br-] [CTAB, hexadecyl trimethyl ammonium bromide]    0.0
CCCCCC(=O)OC[C@H](COP(=O)([O-])OCC[N+](C)(C)C)OC(=O)CCCCC [DiC6PC, 1,2-dihexanoyl lecithin]    0.0
CCCCCCCCCCCCCC(=O)OCC(O)COP(=O)([O-])OCC[N+](C)(C)C (stereo not drawn) [LPC14]    1.0

query: I'd appreciate it if you could say whether CCCCCCCCCCCCO[C@@H]1O[C@H](CO)[C@@H](O[C@H]2O[C@H](CO)[C@@H](O)[C@H](O)[C@H]2O)[C@H](O)[C@H]1O [DDM, n-dodecyl-ß-D-maltopyranoside] has Hydrolytic activity, Total recovery at least equal to 80%.
result: 1.0

###

Biological target: Pseudomonas cepacia lipase PCL (Burkholderia cepacia)
Construct: purchased Sigma-Aldrich Co., Ltd
Sequence (P22088 45-364): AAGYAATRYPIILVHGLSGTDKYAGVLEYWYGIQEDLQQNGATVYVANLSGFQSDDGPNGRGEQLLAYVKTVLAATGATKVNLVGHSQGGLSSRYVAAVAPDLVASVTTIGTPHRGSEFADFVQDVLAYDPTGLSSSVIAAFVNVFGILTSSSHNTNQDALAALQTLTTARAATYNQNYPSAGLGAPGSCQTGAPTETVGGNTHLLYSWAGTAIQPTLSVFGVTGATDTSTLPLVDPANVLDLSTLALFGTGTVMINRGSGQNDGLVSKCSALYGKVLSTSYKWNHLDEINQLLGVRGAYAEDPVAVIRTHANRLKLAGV
Test: Ester synthesis activity of surfactant-treated lyophilized lipase PCL by GC analysis
Format: biochemical
Conditions: surfactant 10 mM, protein 0.2 mg·mL^−1
Protocol: (2) Determination of Ester Synthesis Activity of the Lipase by GC Analysis Substrate solution A: 48.5 mL of n-octanoic acid is dissolved in 250 mL of n-heptane in a volumetric flask. Substrate solution B: 17.5 mL of absolute ethanol is dissolved in 250 mL of n-heptane in a volumetric flask. Internal standard: 2-hexanol/n-heptane (35 g·L^−1). Standard sample: 10 g of n-octanoate is dissolved in 1000 mL of n-heptane in a volumetric flask. […]
property.label: Ester synthesis activity, Total recovery (%)
Unit % implied. Number only.

CCCCCCCCCCCCOCCOCCOCCOCCOCCOCCOCCOCCO    130
CCCCCC(=O)OC[C@H](COP(=O)([O-])OCC[N+](C)(C)C)OC(=O)CCCCC    260
CCCCCCCCCCCCCCCC[N+](C)(C)C.[Br-] [CTAB, hexadecyl trimethyl ammonium bromide]    0

query: Item C[C@H](CCC(=O)NCCC[N+](C)(C)CCCS(=O)(=O)[O-])[C@H]1CC[C@H]2[C@@H]3[C@H](O)C[C@@H]4C[C@H](O)CC[C@]4(C)[C@H]3C[C@H](O)[C@]12C has what recorded Ester synthesis activity, Total recovery?
result: 130

###

Each entry below carries its recorded Ester synthesis activity, Specific activity.
target: Candida antarctica lipase CALB (Moesziomyces antarcticus, UniProt P41365); construct: purchased Sigma-Aldrich Co., Ltd; test: Ester synthesis activity of surfactant-treated lyophilized lipase CALB by GC analysis; assay type: biochemical; conditions: surfactant 10 mM, protein 0.12 mg·mL^−1
Sequence (P41365 26-342): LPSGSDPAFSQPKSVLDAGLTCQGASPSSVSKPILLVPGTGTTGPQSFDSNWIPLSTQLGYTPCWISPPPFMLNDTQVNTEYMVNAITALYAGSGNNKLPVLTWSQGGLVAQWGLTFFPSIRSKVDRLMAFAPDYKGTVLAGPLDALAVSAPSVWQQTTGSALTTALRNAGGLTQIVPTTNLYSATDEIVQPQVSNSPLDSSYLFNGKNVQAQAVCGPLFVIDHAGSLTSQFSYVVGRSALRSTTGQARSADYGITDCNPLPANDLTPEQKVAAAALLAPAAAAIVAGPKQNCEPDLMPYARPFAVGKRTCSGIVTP
All answers are understood in U · mg^−1, so give the number only.

These recorded examples may help you get a feel for the data.
CCCCCCCCCCCCCC(=O)OCC(O)COP(=O)([O-])OCC[N+](C)(C)C (stereo not drawn)    36.8
CCCCCCCCCCCCO[C@@H]1O[C@H](CO)[C@@H](O[C@H]2O[C@H](CO)[C@@H](O)[C@H](O)[C@H]2O)[C@H](O)[C@H]1O [DDM, n-dodecyl-ß-D-maltopyranoside]    101.9
CCCCCCCCCCCCOCCOCCOCCOCCOCCOCCOCCOCCO    62.8
C[C@H](CCC(=O)NCCC[N+](C)(C)CCCS(=O)(=O)[O-])[C@H]1CC[C@H]2[C@@H]3[C@H](O)C[C@@H]4C[C@H](O)CC[C@]4(C)[C@H]3C[C@H](O)[C@]12C    5.9
CCCCCCCCCCCCCCCC[N+](C)(C)C.[Br-] [CTAB, hexadecyl trimethyl ammonium bromide]    36.6

// next entry
query: Give the reported Ester synthesis activity, Specific activity for CCCCCC(=O)OC[C@H](COP(=O)([O-])OCC[N+](C)(C)C)OC(=O)CCCCC (system: Candida antarctica lipase CALB (Moesziomyces antarcticus, UniProt P41365)).
result: 31.9

###

molecular target: Rhizoupus oryzae lipase ROL (Rhizopus oryzae, UniProt P61872); construct: purchased Sigma-Aldrich Co., Ltd; test: Ester synthesis activity of surfactant-treated lyophilized lipase ROL by GC analysis; type: biochemical; conditions: surfactant 10 mM, protein 0.2 mg·mL^−1
property.label: Ester synthesis activity, Specific activity (U · mg^−1)
State the answer as a number, implicitly in U · mg^−1.

# example entries with known answers
C[C@H](CCC(=O)NCCC[N+](C)(C)CCCS(=O)(=O)[O-])[C@H]1CC[C@H]2[C@@H]3[C@H](O)C[C@@H]4C[C@H](O)CC[C@]4(C)[C@H]3C[C@H](O)[C@]12C    2.6
CCCCCCCCCCCCCCCC[N+](C)(C)C.[Br-] [CTAB, hexadecyl trimethyl ammonium bromide]    0
CCCCCCCCCCCCCC(=O)OCC(O)COP(=O)([O-])OCC[N+](C)(C)C (stereo not drawn)    12.2
CCCCCCCCCCCCOCCOCCOCCOCCOCCOCCOCCOCCO    2.6
CCCCCC(=O)OC[C@H](COP(=O)([O-])OCC[N+](C)(C)C)OC(=O)CCCCC    3.11

Switching to the query record.
query: Would you mind telling me what Ester synthesis activity, Specific activity value was observed for CCCCCCCCCCCCO[C@@H]1O[C@H](CO)[C@@H](O[C@H]2O[C@H](CO)[C@@H](O)[C@H](O)[C@H]2O)[C@H](O)[C@H]1O [DDM, n-dodecyl-ß-D-maltopyranoside] ?
result: 2.8

###

System: Rhizopus chinensis lipase r27RCL
Assay: Hydrolytic activity of surfactant-treated lipase r27RCL using pNPP as substrate
Type: biochemical
Settings: surfactant 10 mM, protein 0.2 mg·mL^−1
Description: (1) Determination of Hydrolytic Activity of the Lipase Using p-Nitrophenyl Palmitate (pNPP) as Substrate Hydrolysis of pNPP catalyzed by lipase generates p-nitrophenol and palmitic acid. p-nitrophenol appears yellow in the buffer at pH 8.0 with the maximum absorption peak at 410 nm. Determination of hydrolytic activity can be achieved by measuring the absorbance at 410 nm. […]
property.label: Hydrolytic activity, Total recovery

Worked cases, Hydrolytic activity, Total recovery given:
C[C@H](CCC(=O)NCCC[N+](C)(C)CCCS(=O)(=O)[O-])[C@H]1CC[C@H]2[C@@H]3[C@H](O)C[C@@H]4C[C@H](O)CC[C@]4(C)[C@H]3C[C@H](O)[C@]12C    109%
CCCCCC(=O)OC[C@H](COP(=O)([O-])OCC[N+](C)(C)C)OC(=O)CCCCC    87%
CCCCCCCCCCCCO[C@@H]1O[C@H](CO)[C@@H](O[C@H]2O[C@H](CO)[C@@H](O)[C@H](O)[C@H]2O)[C@H](O)[C@H]1O [DDM, n-dodecyl-ß-D-maltopyranoside]    94%
CCCCCCCCCCCCCCCC[N+](C)(C)C.[Br-] [CTAB, hexadecyl trimethyl ammonium bromide]    0%
CCCCCCCCCCCCOCCOCCOCCOCCOCCOCCOCCOCCO    101%

Below: the item to evaluate.
query: Recorded Hydrolytic activity, Total recovery for CCCCCCCCCCCCCC(=O)OCC(O)COP(=O)([O-])OCC[N+](C)(C)C (stereo not drawn) , please?
result: 97%

###

system: Rhizopus chinensis lipase r27RCL; assay: Hydrolytic activity of surfactant-treated lipase r27RCL using pNPP as substrate; format: biochemical; conditions: surfactant 10 mM, protein 0.2 mg·mL^−1
property.label: Hydrolytic activity, Specific activity (U · mg^−1)
Only the number, expressed in U · mg^−1, is required.

Reference set, count: 4
CCCCCCCCCCCCCCCC[N+](C)(C)C.[Br-] [CTAB, hexadecyl trimethyl ammonium bromide]    0
C[C@H](CCC(=O)NCCC[N+](C)(C)CCCS(=O)(=O)[O-])[C@H]1CC[C@H]2[C@@H]3[C@H](O)C[C@@H]4C[C@H](O)CC[C@]4(C)[C@H]3C[C@H](O)[C@]12C [CHAPS]    132.6
CCCCCC(=O)OC[C@H](COP(=O)([O-])OCC[N+](C)(C)C)OC(=O)CCCCC [DiC6PC, 1,2-dihexanoyl lecithin]    104.2
CCCCCCCCCCCCO[C@@H]1O[C@H](CO)[C@@H](O[C@H]2O[C@H](CO)[C@@H](O)[C@H](O)[C@H]2O)[C@H](O)[C@H]1O [DDM, n-dodecyl-ß-D-maltopyranoside]    135.0

Turning now to a further molecule:
query: Bench note: what Hydrolytic activity, Specific activity did CCCCCCCCCCCCOCCOCCOCCOCCOCCOCCOCCOCCO [C12E8, octaethylene glycol monododecyl ether] show?
result: 117.1
